Test: growth inhibitors of tim10-1 mutant yeast, confirmation, single concentration, luminescence, S. cerevisiae (AID 463213);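 note: tim10-1 mutant grown at permissive 25 °C to find synthetic lethal compounds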
Settings: S. cerevisiae tim10-1 ts strain growth, BacTiter-Glo, 24 h; at 20 µM
In all, about 7,400 compounds went through this assay and about 4,100 (55%) were called active.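 Rule for the calls: active = inhibition of yeast growth at or above a set limit in either of two repeat tests at 20 µM; inactive = the rest.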 The set was probably picked from earlier hits. These entries were drawn from the full list.
Possible outcomes: active, inactive

[
  {
    "compound": "CCn1nccc1C(=O)Nc1ccc(Cl)c(Cl)c1",
    "assignedClass": "active"
  },
  {
    "compound": "Cc1nonc1C1CCCN1C(=O)c1cc(COc2cccc(C(F)(F)F)c2)on1 (stereo unspecified)",
    "assignedClass": "active"
  },
  {
    "compound": "CCOC(=O)C1=C(C)N=c2s/c(=C\\C(=O)OC)c(=O)n2C1c1ccc(OC)cc1 (stereo unspecified)",
    "assignedClass": "inactive"
  },
  {
    "compound": "O=C(Nc1ccc(Br)cn1)c1ccc([N+](=O)[O-])o1",
    "assignedClass": "active"
  },
  {
    "compound": "Cc1nn(Cc2ccc(Cl)c(Cl)c2)c(C)c1NC(=O)c1cc(C2CC2)on1",
    "assignedClass": "active"
  },
  {
    "compound": "COc1ccccc1CSc1ncc(-c2ccc([N+](=O)[O-])cc2)[nH]1",
    "assignedClass": "inactive"
  },
  {
    "compound": "O=C(/C=C/Sc1ncn[nH]1)c1ccc(Cl)cc1",
    "assignedClass": "active"
  },
  {
    "compound": "O=C1/C(=C\\c2ccccc2Cl)SC(=S)N1CCC(=O)N1CCCc2ccccc21",
    "assignedClass": "inactive"
  },
  {
    "compound": "O=C(ON=C1CCN(S(=O)(=O)c2ccccc2)CC1)c1ccc(Cl)cc1",
    "assignedClass": "active"
  },
  {
    "compound": "Cc1cccc(NC(=O)c2ccc([N+](=O)[O-])o2)c1",
    "assignedClass": "active"
  },
  {
    "compound": "CC(C)CC(=O)NC(=S)Nc1ccc(F)cc1F",
    "assignedClass": "inactive"
  }
]

###

Test: growth inhibitors of tim10-1 mutant yeast, confirmation, single concentration, luminescence, S. cerevisiae (AID 463213);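 note: tim10-1 mutant grown at permissive 25 °C to find synthetic lethal compounds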
Settings: S. cerevisiae tim10-1 ts strain growth, BacTiter-Glo, 24 h; at 20 µM
Out of some 7,400 compounds screened, about 4,100 (55%) were called active.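 The calls were made as follows: active = inhibition of yeast growth at or above a set limit in either of two repeat tests at 20 µM; inactive = the rest.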 So high a share suggests a set chosen from earlier hits. A selection follows.
Possible outcomes: active, inactive

[
  {
    "molecule": "c1ccc(-c2nnc3n2NC(c2ccc4c(c2)OCO4)S3)cc1 (stereo not drawn)",
    "assignedClass": "active"
  },
  {
    "molecule": "O=C(Oc1ccc(-c2nc(-c3ccccn3)no2)cc1)c1ccccc1",
    "assignedClass": "inactive"
  },
  {
    "molecule": "COc1ccc(-c2oc3ncn(Cc4ccco4)c(=N)c3c2-c2ccc(OC)cc2)cc1",
    "assignedClass": "inactive"
  },
  {
    "molecule": "COc1ccc(C(=O)NC(=S)NNC(=O)c2c(-c3ccccc3)noc2C)cc1",
    "assignedClass": "inactive"
  },
  {
    "molecule": "CCCc1cc(-c2nc(-c3ccc(C)cc3)cs2)ccn1",
    "assignedClass": "active"
  },
  {
    "molecule": "COc1ccc(NC(=S)N2N=CCC2c2ccccc2)cc1 (stereo not drawn)",
    "assignedClass": "inactive"
  },
  {
    "molecule": "COC(=O)CCc1sc(Nc2ccc(Br)cc2)nc1-c1ccc(OC)cc1",
    "assignedClass": "inactive"
  },
  {
    "molecule": "CN1c2ccccc2-c2nc3ccccc3n2C1c1ccco1 (stereo not drawn)",
    "assignedClass": "inactive"
  },
  {
    "molecule": "Fc1ccccc1/C=C1\\CCCC2=C1Nc1ncnn1C2c1ccccc1F (stereo not drawn)",
    "assignedClass": "active"
  },
  {
    "molecule": "Cc1oc2c(c1C(=O)N1CCOCC1)C(=O)c1ccccc1C2=O",
    "assignedClass": "active"
  },
  {
    "molecule": "O=[N+]([O-])c1ccc(N/N=C/c2ccccc2)cc1",
    "assignedClass": "inactive"
  },
  {
    "molecule": "FC(F)(F)Oc1ccc(NC(=S)NCc2ccccc2)cc1",
    "assignedClass": "active"
  },
  {
    "molecule": "Cc1ccc(Oc2nc(-c3ccccn3)nc3ccccc23)cc1",
    "assignedClass": "active"
  },
  {
    "molecule": "CC(Nc1nc(C(F)(F)F)nc2ccccc12)c1cccs1 (stereo not drawn)",
    "assignedClass": "active"
  },
  {
    "molecule": "COc1ccc(-n2cc(-c3ccccc3)c3c(=S)nc[nH]c32)cc1",
    "assignedClass": "active"
  },
  {
    "molecule": "CCc1cccc(CC)c1NC(=S)NCc1ccc2[nH]c(C)cc2c1",
    "assignedClass": "active"
  },
  {
    "molecule": "O=C(Nc1cccc(Cl)c1)c1cncn1-c1ccc(F)cc1",
    "assignedClass": "active"
  },
  {
    "molecule": "Cc1[nH]c2ccccc2c1C(=O)COC(=O)c1c(-c2ccccc2)noc1C",
    "assignedClass": "active"
  },
  {
    "molecule": "O=C(Nc1nc(-c2ccco2)c(-c2ccco2)s1)c1ccco1",
    "assignedClass": "active"
  },
  {
    "molecule": "Cc1ccc(S(=O)(=O)NC(C(=O)N2CCOCCOCCOCCOCC2)c2ccccc2)cc1 (stereo not drawn)",
    "assignedClass": "inactive"
  },
  {
    "molecule": "Cc1cc(Nc2ccccc2)n(C(=O)c2ccc(N)cc2)n1",
    "assignedClass": "active"
  },
  {
    "molecule": "CCNC(=S)N(CCc1c(C)[nH]c2ccc(C)cc12)Cc1ccco1",
    "assignedClass": "inactive"
  },
  {
    "molecule": "CSC(=S)N/N=C/c1c[nH]c2ccccc12",
    "assignedClass": "active"
  }
]

###

Test: growth inhibitors of tim10-1 mutant yeast, confirmation, single concentration, luminescence, S. cerevisiae (AID 463213);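 note: tim10-1 mutant grown at permissive 25 °C to find synthetic lethal compounds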
Details: S. cerevisiae tim10-1 ts strain growth, BacTiter-Glo, 24 h; at 20 µM; active compounds read high
Hit rate of the full screen: of about 7,400 compounds, about 4,100 (55%) were called active. So high a share suggests a set chosen from earlier hits. A selection follows.
inhibition of 20% or higher: Fulfilled. Under 20%: Not fulfilled.

[
  {
    "compound": "CCCCCCCCn1c2c(c(=N)c3c1CCC3)CCCC2",
    "assignedClass": "Fulfilled"
  },
  {
    "compound": "Brc1ccc(C2=CC(c3ccco3)n3ncnc3N2)cc1 (configuration not stated)",
    "assignedClass": "Not fulfilled"
  },
  {
    "compound": "CCOC(=O)c1ccccc1N1C(=O)C2Sc3[nH]c(=O)sc3C(/C=C/c3ccccc3)C2C1=O (configuration not stated)",
    "assignedClass": "Not fulfilled"
  },
  {
    "compound": "Cc1ccc(OS(=O)Nc2cccc3nccnc23)cc1 (configuration not stated)",
    "assignedClass": "Fulfilled"
  },
  {
    "compound": "CCOC(=O)C(=Cc1ccccc1OC)C(=O)OCC",
    "assignedClass": "Fulfilled"
  },
  {
    "compound": "Fc1cccc(Cl)c1CSc1ccc(-c2ccco2)nn1",
    "assignedClass": "Fulfilled"
  },
  {
    "compound": "COc1cc([N+](=O)[O-])ccc1NC(=O)COC(=O)CCOc1ccc(C)cc1",
    "assignedClass": "Fulfilled"
  },
  {
    "compound": "CC(C)NC(=O)/C(C#N)=C\\c1ccc(N(C)C)c(Br)c1",
    "assignedClass": "Fulfilled"
  },
  {
    "compound": "CN(C(=O)CC(NC(=O)c1ccccc1)(c1ccccc1)c1ccccc1)c1ccccc1",
    "assignedClass": "Fulfilled"
  },
  {
    "compound": "O=C(CN1CCN(c2ccc(F)cc2)CC1)Nc1cccc(C(F)(F)F)c1",
    "assignedClass": "Fulfilled"
  },
  {
    "compound": "COc1ccc(NC(C)=O)cc1NC(=O)CN1CCN(C2c3ccccc3-c3ccccc32)CC1",
    "assignedClass": "Not fulfilled"
  },
  {
    "compound": "N/C(=N\\OC(=O)Cc1ccccc1[N+](=O)[O-])c1ccc(Br)cc1",
    "assignedClass": "Fulfilled"
  },
  {
    "compound": "O=C(COc1ccccc1F)NNC(=O)c1ccc(N2CCCCC2)c([N+](=O)[O-])c1",
    "assignedClass": "Fulfilled"
  },
  {
    "compound": "c1c2c(cc3sc(N4CCCCC4)nc13)OCCO2",
    "assignedClass": "Fulfilled"
  },
  {
    "compound": "CCOC(=O)C/C(C)=N\\Nc1ccc([N+](=O)[O-])cc1[N+](=O)[O-]",
    "assignedClass": "Not fulfilled"
  },
  {
    "compound": "Cc1ccc(C)c(N2CCN(C(=O)CCCCn3c(=O)[nH]c4ccccc4c3=O)CC2)c1",
    "assignedClass": "Not fulfilled"
  },
  {
    "compound": "Cc1ccc(-c2ccc(/C=C(\\C#N)C(N)=S)o2)c([N+](=O)[O-])c1",
    "assignedClass": "Fulfilled"
  },
  {
    "compound": "COc1ccccc1CNC(=O)c1ccc(SC)cc1OC",
    "assignedClass": "Fulfilled"
  },
  {
    "compound": "O=[N+]([O-])c1ccc(N/N=C2/CCCCC2c2ccccn2)c([N+](=O)[O-])c1 (configuration not stated)",
    "assignedClass": "Fulfilled"
  },
  {
    "compound": "Cc1ccc(NC(=O)CCOc2ccccc2)cc1S(=O)(=O)Nc1ccccc1Cl",
    "assignedClass": "Fulfilled"
  },
  {
    "compound": "CN1CCN(c2ccccc2NC(=O)COc2ccc(C3CCCCC3)cc2)CC1",
    "assignedClass": "Not fulfilled"
  }
]

Values were extracted from PubChem BioAssay AID463213.
